Biological target: T1, GST-PHD1 (S287-K347) of KDM5A (human, UniProt P29375 287-347)
T1 construct: PHD1 domain of histone demethylase KDM5A, human, residues S287-K347; Cloned into pET41a; the vector may add further tags (surmise); also called S287-K347 PHD1; GST-PHD1 (Ser287-Lys347); source: E. coli BL21(DE3), purified (Glutathione Sepharose 4B, Superdex 75 SEC); not shown: GST, N-terminal, kept
T1 sequence (looked up): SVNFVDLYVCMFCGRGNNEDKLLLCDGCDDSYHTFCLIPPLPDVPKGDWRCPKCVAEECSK
Assay: fluorescence polarisation; direct FP: 10 nM C-terminal fluorescently labeled H3 peptide with varying concentrations of GST-PHD1
Details: both partners purified
Where no end group is shown, it is not given here. 5‑FAM = 5-carboxyfluorescein
parameter: Kd

### Prompt Endpoint output: Kd of ARTKQTARKS-{5‑FAM} (peptide, UniProt P68431 2-11, looked up, histone H3 N-terminal tail, 10mer Ala1-Ser10, unmodified; also called H3K4me0; C-terminal fluorescently labeled H3 peptide) [5-carboxyfluorescein (5-FAM) conjugated H3 10mer peptide] . Value?
### Response 680 nM
